Assayed System: hOCT1 (Homo sapiens)
Construct: expressed in transfected cells
Sequence (O15245 1-554): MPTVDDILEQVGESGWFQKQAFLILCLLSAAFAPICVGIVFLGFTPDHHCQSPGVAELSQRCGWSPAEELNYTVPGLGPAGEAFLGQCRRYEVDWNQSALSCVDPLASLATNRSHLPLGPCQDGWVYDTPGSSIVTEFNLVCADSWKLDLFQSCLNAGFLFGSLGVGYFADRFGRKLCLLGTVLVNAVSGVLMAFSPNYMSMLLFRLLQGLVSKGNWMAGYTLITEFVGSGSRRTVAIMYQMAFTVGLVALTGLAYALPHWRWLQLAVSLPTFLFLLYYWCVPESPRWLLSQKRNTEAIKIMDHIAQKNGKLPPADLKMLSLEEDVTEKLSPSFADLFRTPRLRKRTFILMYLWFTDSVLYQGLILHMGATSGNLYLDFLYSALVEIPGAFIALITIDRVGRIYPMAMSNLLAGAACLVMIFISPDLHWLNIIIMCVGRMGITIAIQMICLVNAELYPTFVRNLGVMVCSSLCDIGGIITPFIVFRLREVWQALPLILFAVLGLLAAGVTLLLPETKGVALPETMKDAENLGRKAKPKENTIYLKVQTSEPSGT
Assay Summary: [3H]MPP+ uptake inhibition assay, HEK293 cells stably expressing hOCT1
Assay type: cell-based
Condition Context: HEK293 stably expressing hOCT1; 0.05 μM [3H]MPP+; 10 min pre-incubation, 10 min uptake; brackets in Table S1 = 95%-CI; n.s. = non-significant; read-out: IC50 hOCT1 (inhibitory potency, [3H]MPP+ uptake)
Would you kindly list IC50 for each of these compounds?
Numbers only, in µM.

Examples with their reported IC50 follow.
| Compound | Assay Result |
| --- | --- |
| CN(C)CCC[C@]1(c2ccc(F)cc2)OCc2cc(C#N)ccc21 [R-Citalopram, R-citalopram] | 5.11 |
| CCN1/C(=C/c2ccc3ccccc3[n+]2CC)C=Cc2ccccc21 [Decynium-22] | 2.66 |
| CN(C)CCC[C@@]1(c2ccc(F)cc2)OCc2cc(C#N)ccc21 [S-Citalopram, S-citalopram] | 7.15 |

Switching to the query record.
# input Give the value of IC50 reported for the following: CC(NC(C)(C)C)C(=O)c1cccc(Cl)c1 (stereo not shown) [Bupropion, bupropion]
# output 5.36

* * *

Assayed System: hOCT3 (Homo sapiens, UniProt O75751)
Construct: expressed in transfected cells
Sequence (O75751 whole entry): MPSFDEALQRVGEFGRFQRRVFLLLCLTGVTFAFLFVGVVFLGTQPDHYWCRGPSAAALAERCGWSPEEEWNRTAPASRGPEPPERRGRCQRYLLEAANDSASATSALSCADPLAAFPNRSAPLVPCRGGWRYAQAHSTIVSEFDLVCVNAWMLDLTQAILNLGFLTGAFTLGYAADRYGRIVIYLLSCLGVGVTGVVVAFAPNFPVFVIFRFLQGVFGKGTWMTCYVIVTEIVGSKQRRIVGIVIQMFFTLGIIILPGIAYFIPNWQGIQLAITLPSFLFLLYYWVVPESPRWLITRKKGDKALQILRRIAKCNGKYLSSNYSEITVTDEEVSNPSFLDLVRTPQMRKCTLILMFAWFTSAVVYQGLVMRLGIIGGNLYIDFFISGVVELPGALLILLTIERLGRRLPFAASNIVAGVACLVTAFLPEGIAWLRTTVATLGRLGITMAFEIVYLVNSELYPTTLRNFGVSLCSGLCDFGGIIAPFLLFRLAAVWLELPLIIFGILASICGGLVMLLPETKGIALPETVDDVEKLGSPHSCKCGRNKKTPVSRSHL
Assay Summary: [3H]MPP+ uptake inhibition assay, HEK293 cells stably expressing hOCT3
Type: cell-based
Condition Context: [3H]MPP+ uptake, HEK293 hOCT3
Assay Endpoint: Effect on substrate uptake by hOCT3 (in words)

| Compound | Assay Result |
| --- | --- |
| COc1cccc(C2(O)CCCCC2CN(C)C)c1 (stereo not drawn) [Tramadol, tramadol] | No interaction |
| CN(C)C[C@H]1CCCC[C@]1(O)c1cccc(O)c1 [O-Desmethyltramadol, O-desmethyltramadol] | No interaction |

* * *

Assayed System: hOCT2 (Homo sapiens, UniProt O15244)
Construct: expressed in transfected cells
Sequence (O15244 whole entry): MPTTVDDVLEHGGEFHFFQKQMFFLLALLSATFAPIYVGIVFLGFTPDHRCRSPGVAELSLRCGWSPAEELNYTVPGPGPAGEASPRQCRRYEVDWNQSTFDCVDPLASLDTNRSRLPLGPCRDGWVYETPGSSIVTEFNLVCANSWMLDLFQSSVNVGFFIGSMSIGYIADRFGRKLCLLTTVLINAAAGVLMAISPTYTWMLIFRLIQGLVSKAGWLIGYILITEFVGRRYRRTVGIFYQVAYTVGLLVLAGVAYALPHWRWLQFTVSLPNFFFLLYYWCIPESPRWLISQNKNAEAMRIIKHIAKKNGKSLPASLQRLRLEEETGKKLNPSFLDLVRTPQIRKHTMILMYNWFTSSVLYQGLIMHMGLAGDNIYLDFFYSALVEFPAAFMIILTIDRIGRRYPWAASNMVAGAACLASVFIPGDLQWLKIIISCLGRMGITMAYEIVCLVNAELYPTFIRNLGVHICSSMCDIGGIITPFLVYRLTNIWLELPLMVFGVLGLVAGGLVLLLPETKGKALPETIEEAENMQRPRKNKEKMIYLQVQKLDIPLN
Assay Summary: [3H]MPP+ uptake inhibition assay, HEK293 cells stably expressing hOCT2
Format: cell-based
Condition Context: HEK293 stably expressing hOCT2; 0.05 μM [3H]MPP+; 10 min pre-incubation, 10 min uptake; brackets in Table S1 = 95%-CI; n.s. = non-significant; read-out: IC50 hOCT2 (inhibitory potency, [3H]MPP+ uptake)
Exercise: state measured IC50 for each of the molecules provided.
One number for each entry, in µM.

| Molecule | Assay Result |
| --- | --- |
| CN(C)CCC[C@@]1(c2ccc(F)cc2)OCc2cc(C#N)ccc21 | 59.9 |

Each molecule below has a recorded value; state its IC50.
1. CN(C)CCC[C@]1(c2ccc(F)cc2)OCc2cc(C#N)ccc21
2. CC(NC(C)(C)C)C(=O)c1cccc(Cl)c1 (stereo not shown)

# output
[46.6, 32.9]

# input Specify reported IC50 for the molecule shown: CCN1/C(=C/c2ccc3ccccc3[n+]2CC)C=Cc2ccccc21
# output 4.56

Source: paper PMC8657792
